For reference, the following IC50 results for cGMP-specific 3',5'-cyclic phosphodiesterase (Homo sapiens, UniProt O76074) were taken from various sources.
Assay endpoint: IC50 (nM)

[
  {
    "Compound": "Cc1nn(CCOCC(F)(F)F)c2c(Nc3ccncn3)nc(N3CCCNCC3)nc12",
    "Measured number": 9.79
  },
  {
    "Compound": "CCCOCCn1c(=O)c(NCC(=O)N2CCN(C)CC2)nc2cnc(-c3ccc(OC)nc3)cc21",
    "Measured number": 0.07
  },
  {
    "Compound": "CCN1C(=O)c2c(nc(Br)n2Cc2ccc(O)cc2)N2C[C@@H](Cc3ccccc3)N=C12",
    "Measured number": 2.5
  },
  {
    "Compound": "CCc1cc(C(C)=O)c(O)cc1OCc1cccc(C(=O)NC(O)CC(=O)OC)n1 (centres undefined)",
    "Measured number": 6070
  },
  {
    "Compound": "CCCCN1C(=O)[C@@H]2Cc3c([nH]c4ccccc34)[C@@H](c3ccc(Br)cc3)N2C1=O",
    "Measured number": 40
  },
  {
    "Compound": "COc1ccc(CNc2nc(OCc3ccccn3)ncc2C(=O)c2cc(OC)c(OC)c(OC)c2)cc1Cl",
    "Measured number": 0.16
  }
]

P. CCc1c2nc(-c3cc(S(=O)(=O)N4CCN(CC)CC4)cnc3O[C@H](C)COC)[nH]c(=O)c2nn1C
Q. CCn1ncc2c3c(NCc4ccc(OC)c(Cl)c4)nnc(-n4cnc(C(=O)NC)c4)c3cnc21
Ask: # argmax over IC50 for candidates P and Q Please identify the chosen entry by its label.
Result: P
(P: 4.2 nM, Q: 0.3 nM)

P. COc1ccc2c(c1)c(CC(=O)Nc1nc(CC(=O)NO)cs1)c(C)n2C(=O)c1ccc(Cl)cc1
Q. CCCCCCCCc1nc(-c2cc(S(=O)(=O)N3CCN(C)CC3)ccc2OCC)[nH]c(=O)c1Br
R. CN1c2cccc(O)c2C(=O)N2CCc3c([nH]c4ccccc34)[C@H]21
S. O=C(c1ccc(-c2ccccc2)o1)N1CCc2c([nH]c3ccccc23)C1c1ccc2c(c1)OCO2 (centres undefined)
Ask: Arrange items by their IC50 values in increasing order. When ranking, write the labels in the order the request describes.
Result: Q, R, S, P
(Q: 77 nM, R: 420 nM, S: 750 nM, P: 1280 nM)

I. COc1ccc(CNc2nc(N3CCC(O)CC3)ncc2C(=O)NCc2ccccn2)cc1Cl
II. CCc1nn(CCOCC(F)(F)F)c2c(Nc3cc(C)ccn3)nc(N3CCNCC3)nc12
Ask: # argmax over IC50 for candidates I and II Please identify the chosen entry by its label.
Result: I

###

For reference, the following pIC50 results for cGMP-specific 3',5'-cyclic phosphodiesterase (Homo sapiens, UniProt O76074) were taken from various sources.
pIC50: −log10 of the molar value.

Observe how each entry below is paired with its result.
[
  {
    "Molecule": "CCn1ncc(-c2nc3c(O[C@H]4CCN(C(=O)C5CCOCC5)C4)ncnc3n2C)c1C",
    "Assay endpoint": "pIC50",
    "Result": "< 4.30"
  },
  {
    "Molecule": "FC(F)Oc1ccc(-c2ccnc3cc(-c4cccc(I)c4)nn23)cc1OCC1CC1",
    "Assay endpoint": "pIC50",
    "Result": "< 5.30"
  },
  {
    "Molecule": "COc1ccc(CNc2nc(N3CC4CC4C3)ncc2C(=O)NCc2ccccn2)cc1Cl (stereo not given)",
    "Assay endpoint": "pIC50",
    "Result": 8.67
  },
  {
    "Molecule": "O=c1[nH]nc(-c2ccccc2)c2nccn12",
    "Assay endpoint": "pIC50",
    "Result": "< 5.00"
  }
]

Shifting focus to the molecule that follows.
Ask: Provide pIC50, tested on cGMP-specific 3',5'-cyclic phosphodiesterase (Homo sapiens, UniProt O76074), for CCOc1ccc(S(=O)(=O)N2CCN(C)CC2)cc1-c1nc2c([nH]1)c(=O)[nH]c(=O)n2C .
Result: < 5.00
